- assay-details: Quantitative High-Throughput drug screen in 47 multiple myeloma cell lines against the NCATS MIPE library collection: XG6_PLB cell viability assay (AID 1919865); further: nearly all actives have a fitted effect of over 40% in size
- details: XG6 myeloma viability, CellTiter-Glo ATP luminescence, 48 h; series mostly up to 45.8 µM
Inconclusive results are not listed. Activity calls are given as the source filed them. The call rests on the fitted dose curve; in most records, active means well fitted cell-killing curve with a large enough effect; inconclusive means small, poorly fitted or top-dose-only effect, or effect the other way; inactive means no such curve, though single readings can be large or run the other way.
Write down one outcome, taken from Yes = active, No = inactive

The examples below pair each entry with its known result.
compound	category
CNC(=O)CN1CCC(Oc2cc3c(Nc4cccc(Cl)c4F)ncnc3cc2OC)CC1	No
CC(=O)c1c(C)c2cnc(Nc3ccc(N4CCNCC4)cn3)nc2n(C2CCCC2)c1=O	Yes
COC(=O)c1ccc2c(C(=Nc3ccc(N(C)C(=O)CN4CCN(C)CC4)cc3)c3ccccc3)c(O)[nH]c2c1	Yes
C=C1C(=CC=C2CCCC3(C)[C@@H]([C@H](C)C=CC=CC(O)(CC)CC)CC[C@@H]23)C[C@@H](O)C[C@@H]1O (stereo not given in full)	Yes

Please indicate how the test categorized "CCC[C@H](NC(=O)C(C#N)=Cc1cccc(Br)n1)c1ccccc1" . Yes

----------
- assay-details: Quantitative High-Throughput drug screen in 47 multiple myeloma cell lines against the NCATS MIPE library collection: L363_DSMZ cell viability assay (AID 1918984); further: potency means the concentration at half of the fitted maximal effect; nearly all actives have a fitted effect of over 40% in size
- details: L363 myeloma viability, CellTiter-Glo ATP luminescence, 48 h; series mostly up to 45.8 µM
Records with an inconclusive call do not appear. The source made the active and inactive calls. Calls come from the whole dose curve; as a rule, active = well fitted cell-killing curve with a large enough effect; inconclusive = small, poorly fitted or top-dose-only effect, or effect the other way; inactive = no such curve, though single readings can be large or run the other way.
Write down one outcome, taken from active, inactive

Please indicate how the test categorized "Cc1ccc2nc(NC(=O)CSc3nc4c(c(=O)n3-c3ccccc3)SCC4)sc2c1" . active

Please indicate how the test categorized "Cn1c2ccccc2c2c3c(c4c5ccccc5n(CCC#N)c4c21)CNC3=O" . active

Please indicate how the test categorized "COc1cc2c(Oc3ccc(NC(=O)C4(C(=O)Nc5ccc(F)cc5)CC4)cc3F)ccnc2cc1OCCCN1CCOCC1" . active

----------
- assay-details: qHTS of pediatric cancer cell lines to identify multiple opportunities for drug repurposing: Primary screen for control Hh wild type fibroblast cells (AID 1347106); further: nearly all actives have a fitted effect of over 55% in size; further: potency means the concentration at half of the fitted maximal effect
- details: Hh wild-type fibroblast viability, CellTiter-Glo luminescence, 48 h; series mostly up to 46 µM
Records with an inconclusive call do not appear. The source made the active and inactive calls. Calls come from the whole dose curve; as a rule, active = well fitted cell-killing curve with a large enough effect; inconclusive = small, poorly fitted or top-dose-only effect; inactive = flat fitted curve, though single readings scatter.
recorded-metric: Potency

Would you please look over these solved cases?
smi	Potency
Cc1nc(Nc2n[nH]c3c2CN(C(=O)N[C@H](CN(C)C)c2ccccc2)C3(C)C)c2sccc2n1	14.8 µM (active)
CC[C@@H]1C(=O)N(C)c2cnc(Nc3ccc(C(=O)NC4CCN(C)CC4)cc3OC)nc2N1C1CCCC1	23.5 µM (active)
O=C(O)CCCc1c[nH]c2ccccc12	inactive
O=C(O)Cn1nnc(-c2cc(N3CCC(Oc4cc(F)ccc4Br)CC3)no2)n1	inactive

Sample "CNC(=O)c1ccc(N2C(=S)N(c3cnc(C#N)c(C(F)(F)F)c3)C(=O)C23CCC3)cc1F" — what was its Potency? 3.72 µM (active)

----------
- assay-details: Quantitative High-Throughput drug screen in 47 multiple myeloma cell lines against the NCATS MIPE library collection: Delta47_JCRB cell viability assay (AID 1918925; further: nearly all actives have a fitted effect of over 45% in size)
- details: Delta47 myeloma viability, CellTiter-Glo ATP, 48 h; series mostly up to 45.8 µM
Records with an inconclusive call do not appear. Calls of active or inactive are those of the source. Calls follow the shape of the dose curve; as a rule, active = well fitted cell-killing curve with a large enough effect; inconclusive = small, poorly fitted or top-dose-only effect, or effect the other way; inactive = no such curve, though single readings can be large or run the other way.
Write down one outcome, taken from active, inactive

The examples below pair each entry with its known result.
smi	category
COc1c(OCCCN2CCOCC2)ccc2c3n(c(=NC(=O)c4cnc(N)nc4)nc12)CCN3	active
CC=C1NC(=O)[C@H]2CSSCCC=C[C@H](CC(=O)N[C@H](C(C)C)C(=O)N2)OC(=O)[C@H](C(C)C)NC1=O	active
COc1cc(C(=O)N2CCC(N3CCN(C)CC3)CC2)ccc1Nc1ncc2c(n1)N(C)c1ccccc1C(=O)N2C	active
COc1cc2c(NC3CCN(C(C)C)CC3)nc(C3CCCCC3)nc2cc1OCCCN1CCCC1	active

Please indicate how the test categorized "C[C@@]12O[C@@H](C[C@]1(O)CO)n1c3ccccc3c3c4c(c5c6ccccc6n2c5c31)CNC4=O" . active

Please indicate how the test categorized "Cc1cc(Nc2cc(N3CCN(C)CC3)nc(Sc3ccc(NC(=O)C4CC4)cc3)n2)n[nH]1" . active

Please indicate how the test categorized "CC(C)(C)c1cnc(CSc2cnc(NC(=O)C3CCNCC3)s2)o1" . active

Please indicate how the test categorized "CCc1c2c(nc3ccc(O)cc13)-c1cc3c(c(=O)n1C2)COC(=O)[C@]3(O)CC" . active

Please indicate how the test categorized "CCCCCCCCCC(=O)N[C@@H](Cc1c[nH]c2ccccc12)C(=O)N[C@H](CC(N)=O)C(=O)N[C@@H](CC(=O)O)C(=O)N[C@@H]1C(=O)NCC(=O)N[C@@H](CCCN)C(=O)N[C@@H](CC(=O)O)C(=O)N[C@H](C)C(=O)N[C@@H](CC(=O)O)C(=O)NCC(=O)N[C@H](CO)C(=O)N[C@@H]([C@@H](C)CC(=O)O)C(=O)N[C@@H](CC(=O)c2ccccc2N)C(=O)O[C@@H]1C" . inactive
